Each entry below carries its recorded pIC50.
molecular target: Glutamate NMDA receptor; GRIN1/GRIN2A (Homo sapiens, UniProt Q05586+Q12879); assay: Inhibition of human GluN1-1a/NR2A receptor expressed in transgenic mouse fibroblast cells assessed as inhibition of L-glutamate-induced excitotoxicity by measuring LDH activity by cell based assay
Sequence (Q12879 whole entry, other chains not shown): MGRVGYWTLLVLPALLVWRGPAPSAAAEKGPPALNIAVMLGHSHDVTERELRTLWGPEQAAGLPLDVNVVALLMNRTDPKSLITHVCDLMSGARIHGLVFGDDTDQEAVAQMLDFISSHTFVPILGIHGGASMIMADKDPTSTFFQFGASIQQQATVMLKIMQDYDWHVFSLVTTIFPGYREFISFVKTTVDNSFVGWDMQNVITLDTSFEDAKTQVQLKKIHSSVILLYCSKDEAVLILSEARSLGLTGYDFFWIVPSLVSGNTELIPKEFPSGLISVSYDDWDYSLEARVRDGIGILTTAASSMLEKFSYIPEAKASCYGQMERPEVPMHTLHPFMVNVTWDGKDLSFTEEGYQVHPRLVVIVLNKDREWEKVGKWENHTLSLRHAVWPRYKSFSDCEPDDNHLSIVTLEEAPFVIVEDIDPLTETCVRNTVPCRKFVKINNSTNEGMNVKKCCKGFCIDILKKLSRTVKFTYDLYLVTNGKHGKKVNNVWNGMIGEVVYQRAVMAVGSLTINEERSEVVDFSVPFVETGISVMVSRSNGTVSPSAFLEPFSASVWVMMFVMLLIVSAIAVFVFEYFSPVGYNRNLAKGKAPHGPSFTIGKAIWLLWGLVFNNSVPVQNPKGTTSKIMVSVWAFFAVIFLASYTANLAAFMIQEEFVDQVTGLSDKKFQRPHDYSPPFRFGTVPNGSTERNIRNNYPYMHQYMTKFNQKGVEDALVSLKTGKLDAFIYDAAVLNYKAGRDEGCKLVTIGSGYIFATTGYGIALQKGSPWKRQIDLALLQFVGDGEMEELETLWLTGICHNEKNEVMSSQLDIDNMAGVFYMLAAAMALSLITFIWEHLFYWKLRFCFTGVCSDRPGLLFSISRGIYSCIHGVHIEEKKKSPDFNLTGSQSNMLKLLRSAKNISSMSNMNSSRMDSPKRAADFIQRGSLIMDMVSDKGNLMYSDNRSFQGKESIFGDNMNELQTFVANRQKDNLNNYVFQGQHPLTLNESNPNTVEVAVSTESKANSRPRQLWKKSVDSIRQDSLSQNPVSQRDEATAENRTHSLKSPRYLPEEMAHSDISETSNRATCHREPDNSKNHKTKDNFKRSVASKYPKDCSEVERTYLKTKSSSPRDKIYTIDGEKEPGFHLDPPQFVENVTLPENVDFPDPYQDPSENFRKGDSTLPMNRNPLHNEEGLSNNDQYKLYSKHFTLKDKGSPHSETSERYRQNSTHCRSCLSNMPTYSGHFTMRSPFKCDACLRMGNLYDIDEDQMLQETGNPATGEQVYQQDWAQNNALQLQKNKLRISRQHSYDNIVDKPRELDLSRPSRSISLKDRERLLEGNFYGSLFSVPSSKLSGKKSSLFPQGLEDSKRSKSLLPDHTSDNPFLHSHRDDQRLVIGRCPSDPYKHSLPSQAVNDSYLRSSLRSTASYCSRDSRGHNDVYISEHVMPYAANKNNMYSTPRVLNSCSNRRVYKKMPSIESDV
pIC50: −log10 of the molar value.
quantityMeasured: pIC50

# smilesStr, recordedNumber
data = [
    ("Cc1ccc2c(c1)c1c[n+](C)ccc1n2CCC(=O)N1c2ccccc2Sc2ccccc21", 6.05),
    ("COc1ccc2c(c1)c1cnccc1n2CCC(=O)N1c2ccccc2Sc2ccccc21", 6.10),
    ("Cc1ccc2c(c1)c1cnccc1n2CCC(=O)N1c2ccccc2Sc2ccccc21", 5.89),
    ("O=C(CCn1c2ccccc2c2c[n+](Cc3ccccc3)ccc21)N1c2ccccc2Sc2ccccc21", 6.00),
]
